The origin of these recorded values is ChEMBL document CHEMBL1201862.

Record form. Attribute: EC50. Fill in for each entry.
# assay-system: UniProt:G5EF15
# Sequence (G5EF15 whole entry, the tested form may be a part): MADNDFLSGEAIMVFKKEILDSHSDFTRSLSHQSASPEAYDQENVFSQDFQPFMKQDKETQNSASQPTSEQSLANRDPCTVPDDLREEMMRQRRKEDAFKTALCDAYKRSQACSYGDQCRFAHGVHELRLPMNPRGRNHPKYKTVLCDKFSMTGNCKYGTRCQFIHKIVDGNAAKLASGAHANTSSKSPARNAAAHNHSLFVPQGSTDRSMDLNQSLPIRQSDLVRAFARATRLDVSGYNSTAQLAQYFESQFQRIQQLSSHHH
# test-name: inhibitors of POS-1/mex-3 RNA binding, dose response, biochemical, fluorescence polarization (AID 1964);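 note: purified POS-1 fused to maltose binding protein made in E. coli; potency of compounds blocking POS-1 binding to fluorescent RNA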
Activity calls are given as the source filed them.

Q. Param item = `Cc1ccc(C)c(N2CCN(C(=O)c3cc4ccccn4n3)CC2)c1` ; retrieve measured EC50.
A. 72.9 µM (active)

Q. # input compound: `CCOc1ccccc1N1C(=O)NC(=O)/C(=C\Nc2ccc(N(CC)CC)cc2)C1=O` ; wanted: its EC50
A. > 300 µM (not active)

Q. Given `O=C1NC(=O)N(CCc2ccccc2)C(=O)/C1=C/NNC(=O)c1ccncc1` , state its recorded EC50.
A. > 300 µM (not active)

Q. Recorded EC50 of `O=C(NNC(=S)NC(=O)c1ccccc1[N+](=O)[O-])c1ccccc1O` , please.
A. 134 µM (active)

Q. Any idea what its EC50 is? The compound is `CCN1CCc2c(sc(NC(=O)c3ccc4ccccc4c3)c2C(N)=O)C1`
A. 45.5 µM (active)

Q. What measured EC50 goes with `N=c1c(S(=O)(=O)c2ccc(Cl)cc2)cc2c(=O)n3ccccc3nc2n1C1CCCCC1` ?
A. 82.7 µM (inconclusive)

Q. Any idea what its EC50 is? The compound is `Cc1ccccc1-c1ccc(/C=C2/SC(N3CCOCC3)=NC2=O)o1`
A. 26.1 µM (inconclusive)

Q. EC50 for `CCN(CC)C(=O)Cn1cc(/C=C2\C(=O)NC(=O)N(c3ccccc3F)C2=O)c2ccccc21` ?
A. > 300 µM (not active)

Q. Name the reported EC50 value associated with the compound `Cc1cc(/C=N/NC(=O)c2cccc(N(C)C)c2)c(C)n1-c1cc(C(=O)O)cc(C(=O)O)c1`
A. > 300 µM (not active)

Q. Sample Cc1ccc2c(c1C)NC(C(=O)O)C1CC=CC21 (configuration not stated) — what was its EC50?
A. 37.4 µM (active)

Q. Please report the recorded EC50 for CC1CC=C2C(C#N)=C(N)C(C#N)(C#N)C(c3cccs3)C2C1 (configuration not stated) .
A. 21.7 µM (active)

Q. # query: EC50 of entry `CCOc1cc(C(c2c(C)[nH][nH]c2=O)c2c(C)[nH][nH]c2=O)cc([N+](=O)[O-])c1O`
A. 16.3 µM (active)

----------
# assay-system: Peroxisome proliferator-activated receptor gamma/Nuclear receptor coactivator 3 (Homo sapiens)
# Sequence (P37231 whole entry): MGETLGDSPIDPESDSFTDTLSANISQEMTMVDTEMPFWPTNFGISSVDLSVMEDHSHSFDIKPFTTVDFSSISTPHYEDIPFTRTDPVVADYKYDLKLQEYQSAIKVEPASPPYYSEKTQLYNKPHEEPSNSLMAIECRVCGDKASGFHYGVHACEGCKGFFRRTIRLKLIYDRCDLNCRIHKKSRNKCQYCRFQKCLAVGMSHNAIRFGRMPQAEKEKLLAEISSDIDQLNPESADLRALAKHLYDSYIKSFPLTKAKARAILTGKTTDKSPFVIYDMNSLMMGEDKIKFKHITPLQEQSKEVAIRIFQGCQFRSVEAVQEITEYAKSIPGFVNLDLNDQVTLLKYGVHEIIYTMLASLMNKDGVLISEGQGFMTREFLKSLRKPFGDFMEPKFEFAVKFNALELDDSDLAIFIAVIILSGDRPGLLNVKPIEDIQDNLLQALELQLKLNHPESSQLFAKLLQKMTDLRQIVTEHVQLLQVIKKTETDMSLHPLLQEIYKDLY
# Sequence (Q9Y6Q9 whole entry, further chain): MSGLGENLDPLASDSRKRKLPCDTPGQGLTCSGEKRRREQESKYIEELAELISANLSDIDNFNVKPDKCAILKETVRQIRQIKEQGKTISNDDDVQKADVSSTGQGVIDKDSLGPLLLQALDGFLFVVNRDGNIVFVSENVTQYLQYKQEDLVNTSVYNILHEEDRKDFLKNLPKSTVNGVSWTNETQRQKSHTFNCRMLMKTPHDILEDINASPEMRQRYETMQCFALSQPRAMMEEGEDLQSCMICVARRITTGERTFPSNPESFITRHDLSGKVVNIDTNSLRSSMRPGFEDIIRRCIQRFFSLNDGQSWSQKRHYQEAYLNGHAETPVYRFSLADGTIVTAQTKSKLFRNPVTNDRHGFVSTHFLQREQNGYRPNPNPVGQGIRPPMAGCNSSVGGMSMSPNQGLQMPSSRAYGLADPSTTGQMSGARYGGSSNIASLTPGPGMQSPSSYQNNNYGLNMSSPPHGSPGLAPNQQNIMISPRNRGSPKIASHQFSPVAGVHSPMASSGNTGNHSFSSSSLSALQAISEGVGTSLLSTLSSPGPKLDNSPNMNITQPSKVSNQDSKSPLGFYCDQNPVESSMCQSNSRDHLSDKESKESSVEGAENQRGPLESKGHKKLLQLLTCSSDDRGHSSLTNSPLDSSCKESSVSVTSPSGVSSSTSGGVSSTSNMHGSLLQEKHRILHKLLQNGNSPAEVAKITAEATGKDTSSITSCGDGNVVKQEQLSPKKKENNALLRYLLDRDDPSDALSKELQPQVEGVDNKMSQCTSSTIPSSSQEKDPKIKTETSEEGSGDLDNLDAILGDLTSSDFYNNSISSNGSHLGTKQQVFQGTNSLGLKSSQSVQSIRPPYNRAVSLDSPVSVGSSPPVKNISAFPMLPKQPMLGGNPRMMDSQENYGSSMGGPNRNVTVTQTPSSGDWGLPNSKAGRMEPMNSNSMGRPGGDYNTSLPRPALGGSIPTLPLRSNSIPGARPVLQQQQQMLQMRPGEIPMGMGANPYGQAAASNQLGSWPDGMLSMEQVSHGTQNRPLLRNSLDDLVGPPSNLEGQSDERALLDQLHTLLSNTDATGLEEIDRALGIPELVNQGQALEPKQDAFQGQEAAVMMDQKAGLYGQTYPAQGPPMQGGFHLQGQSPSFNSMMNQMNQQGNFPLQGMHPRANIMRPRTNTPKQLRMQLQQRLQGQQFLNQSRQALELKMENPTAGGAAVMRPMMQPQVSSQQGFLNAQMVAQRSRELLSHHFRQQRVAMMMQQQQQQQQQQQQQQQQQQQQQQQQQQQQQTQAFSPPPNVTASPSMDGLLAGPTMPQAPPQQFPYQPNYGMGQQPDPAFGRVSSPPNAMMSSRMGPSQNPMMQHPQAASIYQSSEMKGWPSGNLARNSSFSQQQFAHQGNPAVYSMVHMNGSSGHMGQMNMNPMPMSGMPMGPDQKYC
# test-name: TR-FRET dose response biochemical High Throughput Screening assay for agonists of the steroid receptor coactivator 3 (SRC-3) recruitment by the peroxisome proliferator-activated receptor gamma (PPAR gamma): non-selective agonists. [Related pubchem assays: 1301 (Confirmation screen.), 1048 (Primary screen.)]
# Format: functional
measurement-kind: EC50

Q. # input compound: `O=C(Nc1nc2c(s1)CN(Cc1ccccc1)CC2)c1cccc(S(=O)(=O)N2CCc3ccccc32)c1` ; wanted: its EC50
A. 28 µM (not active)

Q. What value of measured EC50 is listed for `c1ccc(-c2nnsc2-c2nc3ccccc3[nH]2)cc1` ?
A. 83.6 µM (not active)

Q. Suppose we examine the compound CC(Sc1nnc(-c2ccc(Cl)cc2Cl)n1Cc1ccccc1)C(=O)Nc1nccs1 (centres undefined) ; what EC50 value has been reported?
A. 17.6 µM (not active)

Q. Item CCOC(=O)C1CCCN(CC(=O)Nc2c(C(=O)OC)[nH]c3ccc(Br)cc23)C1 (centres undefined) has what recorded EC50?
A. > 79.4 µM (not active)
